Data provenance is PubChem BioAssay (NCI).

log10 of TGI for assorted compounds
tested on: SR leukemia; test: NCI tumour cell line growth inhibition, 48 h
readout.type: log10 of TGI (log10 of the value in µM)

- structure.smiles.string: "COC(=O)Cc1c([C@H]2[C@H](CC(=O)OC)c3ccccc3N2C(=O)C(F)(F)F)[nH]c2ccccc12"
  log10 of TGI: 1.92
- structure.smiles.string: "COC(=O)C(=Cc1ccccc1[N+](=O)[O-])C(=O)OC"
  log10 of TGI: 0.68
- structure.smiles.string: "O=C(c1ccccc1)c1ccc2nc(-c3c(Cl)c(Cl)c(Cl)c(Cl)c3C(=O)N/N=C\\C=C\\c3ccccc3)[nH]c2c1"
  log10 of TGI: 1.99
- structure.smiles.string: "COc1ccc(/C=C/C(=O)c2ccc(NC(=O)CSc3nnc(-c4ccc(OC)c(OC)c4)n3-c3ccccc3)cc2)cc1"
  log10 of TGI: 0.44
- structure.smiles.string: "NS(=O)(=O)c1ccc(N=Nc2ncccc2O)cc1"
  log10 of TGI: 1.86
